target: Cytochrome P450 2D6 (Homo sapiens, UniProt P10635); assay: Inhibition of CYP2D6 in human liver microsomes at 1 uM; assay type: ADME
Sequence (P10635 whole entry): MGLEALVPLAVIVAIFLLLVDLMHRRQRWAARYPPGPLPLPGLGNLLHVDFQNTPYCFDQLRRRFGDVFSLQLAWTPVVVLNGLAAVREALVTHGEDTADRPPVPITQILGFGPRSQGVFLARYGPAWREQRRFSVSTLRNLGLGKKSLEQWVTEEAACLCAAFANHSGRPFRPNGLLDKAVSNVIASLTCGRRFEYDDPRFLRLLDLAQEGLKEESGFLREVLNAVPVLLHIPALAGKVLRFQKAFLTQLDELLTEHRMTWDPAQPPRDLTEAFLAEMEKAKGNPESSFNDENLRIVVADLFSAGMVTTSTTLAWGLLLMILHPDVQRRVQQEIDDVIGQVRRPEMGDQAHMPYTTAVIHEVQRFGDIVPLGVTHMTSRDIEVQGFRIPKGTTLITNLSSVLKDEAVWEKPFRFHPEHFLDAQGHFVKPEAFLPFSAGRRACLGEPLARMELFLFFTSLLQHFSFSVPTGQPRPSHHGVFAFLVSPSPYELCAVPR
readoutType: inhibition (INH) (%)

| mol | inhibition (INH) (%) |
| --- | --- |
| O=C(N[C@H](Cc1c[nH]c2ccccc12)C(=O)Nc1ccncc1)c1ccc(-c2ccc(F)c(Cl)c2)cc1F | 29 |

A = O=C(N[C@H](Cc1c[nH]c2ccccc12)C(=O)Nc1ccncc1)c1ccc(-c2cccc(C(F)(F)F)c2)cc1F
B = O=C(N[C@H](Cc1c[nH]c2ccccc12)C(=O)Nc1ccncc1)c1ccc(N2CCN(c3cccc(F)c3)CC2)cc1F
C = O=C(N[C@H](Cc1c[nH]c2ccccc12)C(=O)Nc1ccncc1)c1ccc(-c2ccc(F)c(C(F)(F)F)c2)cc1F
D = O=C(N[C@H](Cc1c[nH]c2ccccc12)C(=O)Nc1ccncc1)c1ccc(-c2cc(C(F)(F)F)ccc2F)cc1F
Challenge: Sort entries by inhibition (INH) from minimum to maximum value. Would you mind listing the labels in the order asked for?
Response given: A, D, C, B
(A: 14%, D: 21%, C: 36%, B: 52%)
